studyTarget: UniProtKB Q9Y5Y9
Sequence (Q9Y5Y9 126-399 limits assumed): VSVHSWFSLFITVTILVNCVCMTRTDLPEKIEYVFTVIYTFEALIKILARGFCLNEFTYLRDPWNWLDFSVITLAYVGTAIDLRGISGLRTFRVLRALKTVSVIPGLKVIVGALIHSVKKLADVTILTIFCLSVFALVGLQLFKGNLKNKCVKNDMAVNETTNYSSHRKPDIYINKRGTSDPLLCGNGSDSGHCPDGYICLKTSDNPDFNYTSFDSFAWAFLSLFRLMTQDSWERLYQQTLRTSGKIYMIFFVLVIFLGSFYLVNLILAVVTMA
Sequence (Q9Y5Y9 660-890 limits assumed): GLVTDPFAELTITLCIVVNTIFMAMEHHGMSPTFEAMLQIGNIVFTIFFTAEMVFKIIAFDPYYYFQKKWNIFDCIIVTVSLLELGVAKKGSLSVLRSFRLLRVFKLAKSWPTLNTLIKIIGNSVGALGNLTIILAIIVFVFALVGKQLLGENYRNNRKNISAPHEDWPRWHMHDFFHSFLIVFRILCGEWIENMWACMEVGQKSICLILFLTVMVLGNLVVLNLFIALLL
Sequence (Q9Y5Y9 1148-1722 limits assumed): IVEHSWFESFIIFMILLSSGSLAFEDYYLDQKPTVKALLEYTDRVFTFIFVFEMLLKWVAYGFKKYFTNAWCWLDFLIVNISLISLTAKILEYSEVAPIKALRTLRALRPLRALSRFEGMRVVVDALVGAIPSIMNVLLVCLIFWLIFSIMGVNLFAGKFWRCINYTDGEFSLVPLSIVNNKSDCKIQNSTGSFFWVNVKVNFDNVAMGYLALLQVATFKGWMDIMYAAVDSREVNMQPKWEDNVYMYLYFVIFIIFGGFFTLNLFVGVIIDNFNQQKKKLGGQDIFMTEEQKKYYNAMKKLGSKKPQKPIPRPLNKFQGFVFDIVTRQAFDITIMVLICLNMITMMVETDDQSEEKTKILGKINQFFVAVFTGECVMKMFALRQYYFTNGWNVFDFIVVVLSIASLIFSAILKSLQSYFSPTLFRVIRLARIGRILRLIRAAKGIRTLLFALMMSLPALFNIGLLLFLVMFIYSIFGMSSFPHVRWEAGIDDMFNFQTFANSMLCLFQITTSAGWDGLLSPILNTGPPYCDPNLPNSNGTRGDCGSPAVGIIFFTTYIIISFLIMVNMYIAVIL
assayName: E-VIPR assay detecting and measuring NaV inhibition properties
Format: cell-based
reportedConditions: HEK cells expressing truncated human NaV 1.8; no human serum; read-out: IC50 in the E-VIPR Assay
The following compounds are listed with their measured IC50 values.

Here's what some known entries look like.
{"compound": "COc1c([C@@H]2[C@@H](C(=O)Nc3ccc(C(F)F)nc3)O[C@](C)(C(F)(F)F)[C@@H]2C)ccc(F)c1C(F)F (single isomer, unassigned)", "IC50": "≥ 1 µM"}
{"compound": "COc1c([C@H]2[C@H](C(=O)Nc3ccnc(C4(N)CCOC4)c3)O[C@@](C)(C(F)(F)F)[C@H]2C)ccc(F)c1F (single isomer, unassigned) [Compound 347]", "IC50": "0.01 to 0.1 µM"}
{"compound": "COc1c(C2C(C(=O)Nc3ccnc(C(O)CF)c3)OC(C)(C(F)(F)F)C2C)ccc(F)c1F (single isomer, unassigned)", "IC50": "< 0.01 µM"}
{"compound": "CNC(c1cc(NC(=O)[C@@H]2O[C@@](C)(C(F)(F)F)[C@@H](C)[C@H]2c2ccc(F)c(F)c2OC)ccn1)C(C)(C)OC (single isomer, unassigned)", "IC50": "< 0.01 µM"}
{"compound": "COC[C@@H](O)Cc1cc(NC(=O)[C@@H]2O[C@@](C)(C(F)(F)F)[C@@H](C)[C@H]2c2ccc(F)c(F)c2OCCN2CCOCC2)ccn1", "IC50": "0.01 to 0.1 µM"}
{"compound": "COCC(C)(N)c1cc(NC(=O)[C@@H]2O[C@@](C)(C(F)(F)F)[C@@H](C)[C@H]2c2ccc(F)c(F)c2OC)ccn1 (single isomer, unassigned)", "IC50": "< 0.01 µM"}

What IC50 value was documented for this compound, "Cc1conc1NC(=O)[C@@H]1O[C@@](C)(C(F)(F)F)[C@@H](C)[C@H]1c1ccc(F)c(F)c1OCCO" ?
0.01 to 0.1 µM

What IC50 value was documented for this compound, "COc1c([C@H]2[C@H](C(=O)Nc3ccc(N4CCN(C)CC4=O)nc3)O[C@@](C)(C(F)(F)F)[C@H]2C)ccc(F)c1F" ?
0.1 to 1 µM

What IC50 value was documented for this compound, CC(C)Oc1c([C@H]2[C@H](C(=O)Nc3ccnc(S(C)(=N)=O)c3)O[C@@](C)(C(F)(F)F)[C@H]2C)ccc(F)c1F (single isomer, unassigned) ?
< 0.01 µM

What IC50 value was documented for this compound, COCc1c(F)ccc([C@@H]2[C@@H](C(=O)Nc3ccc(C(N)=O)nc3)O[C@](C)(C(F)(F)F)[C@@H]2C)c1OC (stereo in doubt) ?
≥ 1 µM

What IC50 value was documented for this compound, "COc1c([C@H]2[C@H](C(=O)NCc3nc(C(C)C)no3)O[C@@](C)(C(F)(F)F)[C@H]2C)ccc(F)c1F" ?
≥ 1 µM
